B1: HDV Ribozyme (parent)
chain: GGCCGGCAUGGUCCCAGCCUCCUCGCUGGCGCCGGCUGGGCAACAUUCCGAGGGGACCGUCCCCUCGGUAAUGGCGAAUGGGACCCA

# Variants of: B1
# experimental-protocol: self-cleavage, relative activity (ratio to wild type); higher = more cleavage; co-transcriptional
Consider the following variants and their measured self-cleavage readings.
readout: self-cleavage

1) GGCCGGCAUGGUCCGAGCCUCCUCGCUGGCGUCGGCUGGGCAACAUUCCGAGGGGACCGUCCCCUCGGUAAUGGCGAAUGGGACCCA    0.437
2) GGCCGGCAUGGUCCCAGCCUCCUCGCUGGCGCCGGCUGGGCAACAUUCCGAGGGGACCGUCCCCUCGGCACUGGCGAAUGGGACCCA    0.475
3) GGCCGGCAUGGUCCCAGCCUCCUCGCUCGCGCCGGAUGGGCAACAUUCCGAGGGGACCGUCCCCUCGGUAAUGGCGAAUGGGACCCA    0.0462
4) GGCCGGCAUGGUCCCAACCUCCUCGCUGGCGCCGGCUGGCCAACAUUCCGAGGGGACCGUCCCCUCGGUAAUGGCGAAUGGGACCCA    0.113
5) GGCCGGCAUGGUCCCAGCCUCCUCGCUGGCGCCGGCUGGGCAACAUUCCGAGGGGACCGUCCCCUGGGUAAUGGCGAAUGGGACCCA    0.973
6) GGCCGGCAUGGUCCCAGCCUCCUCGCUGGCGCCGGCUGGGCAAGAUUCCGAGGGGACCGUCCCCUCGGCAAUGGCGAAUGGGACCCA    0.776
7) GGCCGGCAUGGUCCCAGCCUCCUCGCUGGCGCCGGCUGGGCGACAUUGCGAGGGGACCGUCCCCUCGGUAAUGGCGAAUGGGACCCA    0.791
8) GGCCGGCAUGGUCCCAGCCUCCUCGCUGGCGCCGGCUGGGCAACAUUCCGAGGUGACCGUCCCCUCGGUAAUAGCGAAUGGGACCCA    0.776
9) GGCCGGCAUGGUCCCAGCCUCCUCGCUGGCGCCGGCUGAGCAACAUUCCGAGGGGACCUUCCCCUCGGUAAUGGCGAAUGGGACCCA    0.598
10) GGCCGGCAUGGUCCCAGCCUCCUCGCUGGCGCCGGCUGGGCAACAUUCCGAGGGGACCGUGCCCUCGGUAAUGGCGAAUGGUACCCA    0.271
11) GGCCGGCAUGGUCCCAGCCUCCUCGUUGGCGCCGGCUGGGCAACAUUCCGAGGGGACCGUCCCCUGGGUAAUGGCGAAUGGGACCCA    0.861
12) GGCCGGCAUGGUCCCAGCCUCCUCGCUGGCGCCGGCUGGGCAACGUUCCGAGGAGACCGUCCCCUCGGUAAUGGCGAAUGGGACCCA    0.814
13) GGCCGGCAUGGUCCCAGCCUCCUCGCUAGCGCCGCCUGGGCAACAUUCCGAGGGGACCGUCCCCUCGGUAAUGGCGAAUGGGACCCA    0.153
14) GGCCGGCAUGGUCCCAGCCUCCUCGCUGGCGCCGGCUGUGCAACAUUCCGAGGGGACCGUCCCCUCGGUAAUGGCGAAUGGGACCCG    0.661
15) GCCCGGCAUGGUCCCAGCCUCCUCGCUGGCGCCGGCUGGGCAACAUUCCGAGGGGACCGUCCCCUCGGAAAUGGCGAAUGGGACCCA    0.0252
16) GGCCGGCAUGGUCCCAGCCUCCUCGCUGGCGCCGGAUGGGCAACAUUCCGAGGGGUCCGUCCCCUCGGUAAUGGCGAAUGGGACCCA    0.229
17) GGCCGGCAUCGACCCAGCCUCCUCGCUGGCGCCGGCUGGGCAACAUUCCGAGGGGACCGUCCCCUCGGUAAUGGCGAAUGGGACCCA    0.123
18) GGCCGGCAUGGUCCCAGCCUCCGCGCUGGCGCCGGCUGGGCAACAUUCCGAGGGGACCGUCCCCUCGGUAAUGGCCAAUGGGACCCA    0.684
19) GGCCGGCAUGGUCCCAGCCUCCUCGCUGGCGCCGGCUGGGCAACAUUCCGAGGGGACCGUCGCCUUGGUAAUGGCGAAUGGGACCCA    0.554
20) GGCCGGCAUGGUCCGAGCCUCCUCGCUGGCGCCGGCUGGGCAACAAUCCGAGGGGACCGUCCCCUCGGUAAUGGCGAAUGGGACCCA    0.399
21) GGCCGGCAUGGUUCCAGCCUCCUCGCUGGCGCCGGCUGGGCAACAUUCCGAGGGGACCGUCCCCGCGGUAAUGGCGAAUGGGACCCA    0.895
22) GGCCGGCAUGGUCCAAGCCUCCUCGCUGGCGCCGGCUGGGCAACAUUCCGAGGGGACCGUCCCCUCGGUAAUGGCGAAUGGCACCCA    0.415
